Each entry below carries its recorded pIC50.
System: P. falciparum mature gametocytes
Procedure Summary: Microscopic enumeration of gametocytes on Giemsa-stained smears
Type: cell-based, Plasmodium falciparum
Assay Setup: Plasmodium falciparum; mature gametocytes, 48 h incubation, Giemsa smear counting; read-out: IC50 gametocytes Microscopy examination
pIC50: −log10 of the molar value.
Readout Type: pIC50

[[record]]
molecule = "C[C@H]1[C@@H](O)O[C@@H]2O[C@@]3(C)CC[C@H]4[C@H](C)CC[C@@H]1[C@@]24OO3 [Dihydroartemisinin]"
target_of_assay = "P. falciparum mature gametocytes"
numeric_readout = 5.61

[[record]]
molecule = "CN(C)c1ccc2nc3ccc(=[N+](C)C)cc-3sc2c1"
target_of_assay = "P. falciparum mature gametocytes"
numeric_readout = 6.12

[[record]]
molecule = "C[C@H]1[C@H](OC(=O)CCC(=O)O)O[C@@H]2O[C@@]3(C)CC[C@H]4[C@H](C)CC[C@@H]1[C@@]24OO3 [Artesunate]"
target_of_assay = "P. falciparum mature gametocytes"
numeric_readout = 5.65

[[record]]
molecule = "COc1cc(NC(C)CCCN)c2ncccc2c1 (stereo not shown)"
target_of_assay = "P. falciparum mature gametocytes"
numeric_readout = 4.06

